# reported Kb; entries follow
target: human NK1 receptor (Homo sapiens, UniProt P25103); experiment: Functional cellular test, Ca2+ measurement using FLIPR, NK1 (substance P stimulated CHO cells)
Sequence (P25103 whole entry): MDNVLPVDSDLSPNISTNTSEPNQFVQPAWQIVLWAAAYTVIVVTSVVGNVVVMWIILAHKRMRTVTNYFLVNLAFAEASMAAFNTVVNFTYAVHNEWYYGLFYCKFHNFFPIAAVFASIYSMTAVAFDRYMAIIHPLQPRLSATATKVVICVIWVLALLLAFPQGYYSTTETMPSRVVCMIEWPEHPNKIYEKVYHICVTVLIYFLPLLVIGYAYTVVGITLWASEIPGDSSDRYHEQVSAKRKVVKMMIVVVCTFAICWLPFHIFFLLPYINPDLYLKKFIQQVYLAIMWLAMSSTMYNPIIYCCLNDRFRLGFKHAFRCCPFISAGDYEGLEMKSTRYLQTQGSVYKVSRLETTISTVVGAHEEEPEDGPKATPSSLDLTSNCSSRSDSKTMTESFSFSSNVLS

Example entries begin here.
In [3]: df
Out[3]:
                                   compound  quantity_kind  observed_value
0  CC(=O)OCC(O)C(Cc1ccccc1)N1CCN(CCC(CN(C)C(=O)c2cc(C#N)cc3ccccc23)c2ccc(Cl)c(Cl)c2)CC1 (stereo not shown)             Kb           10 nM
1  COc1ccc([C@@H]([C@H](O)CO)N2CCN(CC[C@H](CN(C)C(=O)c3cc(C#N)cc4ccccc34)c3ccc(Cl)c(Cl)c3)CC2)cc1             Kb        0.501 nM
2  CN(CC(CCN1CCN(C(Cc2ccccc2)C(O)CO)CC1)c1ccc(Cl)c(Cl)c1)C(=O)c1cc(C#N)cc2ccccc12 (stereo not shown)             Kb         7.94 nM

Continue with the compound presented below.
Give Kb (human NK1 receptor (Homo sapiens, UniProt P25103)) of the following compound: CC(=O)OC[C@@H](OC(C)=O)[C@H](c1ccco1)N1CCN(CC[C@H](CN(C)C(=O)c2cc(C#N)cc3ccccc23)c2ccc(Cl)c(Cl)c2)CC1
0.631 nM

---

The reader will find reported Ki values listed item by item below.
Biological target: human NK2 receptor (Homo sapiens, UniProt P21452)
Sequence (P21452 1-398): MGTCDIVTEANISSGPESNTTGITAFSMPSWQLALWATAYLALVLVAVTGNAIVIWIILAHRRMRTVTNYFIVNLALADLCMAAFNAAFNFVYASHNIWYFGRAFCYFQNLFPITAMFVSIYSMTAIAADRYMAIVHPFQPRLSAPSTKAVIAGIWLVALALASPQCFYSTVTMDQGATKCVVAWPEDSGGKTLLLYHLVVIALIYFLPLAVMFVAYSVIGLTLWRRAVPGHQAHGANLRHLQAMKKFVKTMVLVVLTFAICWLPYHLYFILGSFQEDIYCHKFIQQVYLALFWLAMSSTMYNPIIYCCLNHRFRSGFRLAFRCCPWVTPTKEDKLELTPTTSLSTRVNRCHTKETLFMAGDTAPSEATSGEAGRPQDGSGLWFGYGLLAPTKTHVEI
Assay: Binding power to NK2 receptors in vitro ([3H]-SR 48968 displacement, CHO cell membranes)
Parameters: expressed in transfected cells; host or cells: CHO cells (membrane preparation)
Settings: human NK2 receptor in CHO membranes, ligand [3H]-SR 48968, 90 min incubation; read-out: pKi (NK2) (converted)

                                   compound                               test_system  observed_value
0  COc1ccc([C@@H]([C@H](O)CO)N2CCN(CC[C@H](CN(C)C(=O)c3cc(C#N)cc4ccccc34)c3ccc(Cl)c(Cl)c3)CC2)cc1 [Compound 16]  human NK2 receptor (Homo sapiens, UniProt P21452)          794 nM
1  CC(=O)OC[C@@H](OC(C)=O)[C@H](c1ccco1)N1CCN(CC[C@H](CN(C)C(=O)c2cc(C#N)cc3ccccc23)c2ccc(Cl)c(Cl)c2)CC1 [Compound 27]  human NK2 receptor (Homo sapiens, UniProt P21452)         25.1 nM
2  CC(=O)OCC(O)C(Cc1ccccc1)N1CCN(CCC(CN(C)C(=O)c2cc(C#N)cc3ccccc23)c2ccc(Cl)c(Cl)c2)CC1 (stereo not shown) [Compound 26]  human NK2 receptor (Homo sapiens, UniProt P21452)          100 nM

// switching to the query compound
Requested field: Ki. Item: CN(CC(CCN1CCN(C(Cc2ccccc2)C(O)CO)CC1)c1ccc(Cl)c(Cl)c1)C(=O)c1cc(C#N)cc2ccccc12 (stereo not shown) [Compound 24]
31.6 nM

All figures here come from patent US7592344B2.
